# Test system: SK-BR-3
# Test name: Growth inhibition of human SKBR3 cells after 48 hrs by MTT assay
# Format: functional, cell-based
# Condition context: SK-BR-3, 48 h
Field: IC50. Provide a value for each of the compounds that follow.
Numbers only, in µM.

Cc1ccc(C)c(COc2cc(NC(=O)c3ccc4c(c3)OCO4)ccc2N(CCCCCCNC(=O)CCCC[C@H]2SC[C@H]3NC(=O)N[C@H]32)S(C)(=O)=O)c1: 2

Dear colleague, could you send me IC50 for each of the items below? Thanks.
1. CN(c1ccc(NC(=O)c2ccc3c(c2)OCO3)cc1OCc1ccccc1)S(C)(=O)=O
2. Cc1ccc(C)c(COc2cc(NC(=O)Cc3ccccc3)ccc2N(C)S(C)(=O)=O)c1

Response given:
62.9
121

Where do the numbers come from? From ChEMBL document CHEMBL2057143.
